The origin of these recorded values is patent US20250084061A1.

system: Plutella xylostella; test: Insecticidal activity, artificial feed surface coating method; type: in vivo; settings: 250 mg/L test solution
measurement-name: Insecticidal activity (mortality rate grade) Plutella xylostella

// worked examples, Insecticidal activity (mortality rate grade) Plutella xylostella included
CC(=O)N1N=C(C)CN(N=Cc2ccc[n+](CC=CS(=O)(=O)[O-])c2)C1=O :: 3 (30˜50%)
CCC(=O)N1N=C(C)CN(N=Cc2ccc[n+](CCCS(=O)(=O)[O-])c2)C1=O :: 0 (mortality rate of 0˜30%)
CCC(=O)N1N=C(C)CN(N=Cc2ccc[n+](CCCCS(=O)(=O)[O-])c2)C1=O :: 0 (mortality rate of 0˜30%)

For the 2 molecules below, give their Insecticidal activity (mortality rate grade) Plutella xylostella values.
1. CC(=O)N1N=C(C)CN(N=Cc2ccc[n+](CCCCS(=O)(=O)[O-])c2)C1=O
2. CC1=NNC(=O)N(N=Cc2ccc[n+](CCCS(=O)(=O)[O-])c2)C1

Result:
1: 3 (30˜50%); 2: 3 (30˜50%)

---

system: Aphiscraccivora; experiment: Insecticidal activity, dipping method; type: in vivo; settings: 500 mg/L test solution
measurement-name: Insecticidal activity (mortality rate grade) Aphiscraccivora

The following compounds have reported results that may help.
COC(=O)Nc1nc2ccccc2n1C/C=C/S(=O)(=O)O [III-2] :: 0 (mortality rate of 0˜30%)
N#CCNC(=O)c1c[n+](C/C=C/S(=O)(=O)O)ccc1C(F)(F)F [Compound I-2] :: 9 (90˜100%)
CC1=NNC(=O)N(N=Cc2ccc[n+](CCCS(=O)(=O)[O-])c2)C1 [IV-1] :: 9 (90˜100%)

Parameters: items (list). Returns: Insecticidal activity (mortality rate grade) Aphiscraccivora for each item.
1. N#CCNC(=O)c1c[n+](CCCCS(=O)(=O)O)ccc1C(F)(F)F [Compound I-3]
2. O=C(NCCc1ccc(OC(F)(F)F)cc1)c1c[n+](CCCS(=O)(=O)O)ccc1C(F)(F)F [Compound I-4]

Result:
9 (90˜100%)
7 (70˜90%)

---

test system: Heliothis armigera; assay: Insecticidal activity, artificial feed surface coating method; assay type: in vivo; details: 250 mg/L test solution
measurement-name: Insecticidal activity (mortality rate grade) Heliothis armigera

Consider the reported Insecticidal activity (mortality rate grade) Heliothis armigera for these compounds:
CC1=NNC(=O)N(N=Cc2ccc[n+](CC=CS(=O)(=O)[O-])c2)C1 :: 0 (mortality rate of 0˜30%)
CC(=O)N1N=C(C)CN(N=Cc2ccc[n+](CCCCS(=O)(=O)[O-])c2)C1=O :: 0 (mortality rate of 0˜30%)
CCC(=O)N1N=C(C)CN(N=Cc2ccc[n+](CC=CS(=O)(=O)[O-])c2)C1=O :: 0 (mortality rate of 0˜30%)

Field: Insecticidal activity (mortality rate grade) Heliothis armigera. Fill in for each record below.
1. CCC(=O)N1N=C(C)CN(N=Cc2ccc[n+](CCCCS(=O)(=O)[O-])c2)C1=O
2. CCC(=O)N1N=C(C)CN(N=Cc2ccc[n+](CCCS(=O)(=O)[O-])c2)C1=O
3. CC1=NNC(=O)N(N=Cc2ccc[n+](CCCS(=O)(=O)[O-])c2)C1
4. CC1=NNC(=O)N(N=Cc2ccc[n+](CCCCS(=O)(=O)[O-])c2)C1
5. CC(=O)N1N=C(C)CN(N=Cc2ccc[n+](CC=CS(=O)(=O)[O-])c2)C1=O

Result:
["0 (mortality rate of 0˜30%)", "0 (mortality rate of 0˜30%)", "3 (30˜50%)", "0 (mortality rate of 0˜30%)", "3 (30˜50%)"]

Task: So what's the measured Insecticidal activity (mortality rate grade) Heliothis armigera for this one? `CC(=O)N1N=C(C)CN(N=Cc2ccc[n+](CCCS(=O)(=O)[O-])c2)C1=O`
Result: 3 (30˜50%)

---

I'd be grateful if you could share measured mortality at 500 µg/mL for these entries.
tested on: Plutella xylostella; assay: Insecticidal activity, artificial feed surface coating method; format: in vivo; details: Plutella xylostella; 500 mg/L test solution; read-out: Insecticidal activity (mortality rate grade) Plutella xylostella

Solved entries (count: 3):
N#CCNC(=O)c1c[n+](CCCS(=O)(=O)O)ccc1C(F)(F)F [Compound I-1] :: 50 to 70%
COC(=O)Nc1nc2ccccc2n1CCCCS(=O)(=O)O [III-3] :: 0 to 30%
N#CCNC(=O)c1c[n+](CCCCS(=O)(=O)O)ccc1C(F)(F)F [Compound I-3] :: 50 to 70%

Each compound below has a reported value. Please supply its mortality at 500 µg/mL.
1. N#CCNC(=O)c1c[n+](C/C=C/S(=O)(=O)O)ccc1C(F)(F)F [Compound I-2]
2. O=C(NCCc1ccc(OC(F)(F)F)cc1)c1c[n+](CCCS(=O)(=O)O)ccc1C(F)(F)F [Compound I-4]
3. COC(=O)Nc1nc2ccccc2n1C/C=C/S(=O)(=O)O [III-2]
4. O=C(NCCc1ccc(OC(F)(F)F)cc1)c1c[n+](C/C=C/S(=O)(=O)O)ccc1C(F)(F)F [Compound I-5]
5. O=C(NCCc1ccc(OC(F)(F)F)cc1)c1c[n+](CCCCS(=O)(=O)O)ccc1C(F)(F)F [Compound I-6]
6. COC(=O)Nc1nc2ccccc2n1CCCS(=O)(=O)O [III-1]

Result:
1: 50 to 70%; 2: 50 to 70%; 3: 0 to 30%; 4: 50 to 70%; 5: 50 to 70%; 6: 0 to 30%

---

test system: Aphiscraccivora; assay: Insecticidal activity, dipping method; type: in vivo; conditions: 250 mg/L test solution
measurement-name: Insecticidal activity (mortality rate grade) Aphiscraccivora

CCC(=O)N1N=C(C)CN(N=Cc2ccc[n+](CC=CS(=O)(=O)[O-])c2)C1=O :: 7 (70˜90%)
COC(=O)Nc1nc2ccccc2n1CCCCS(=O)(=O)O :: 0 (mortality rate of 0˜30%)
N#CCNC(=O)c1c[n+](CCCCS(=O)(=O)O)ccc1C(F)(F)F :: 7 (70˜90%)
CC1=NNC(=O)N(N=Cc2ccc[n+](CC=CS(=O)(=O)[O-])c2)C1 :: 9 (90˜100%)

Task: Name the recorded Insecticidal activity (mortality rate grade) Aphiscraccivora for `O=C(NCCc1ccc(OC(F)(F)F)cc1)c1c[n+](CCCCS(=O)(=O)O)ccc1C(F)(F)F` .
Result: 7 (70˜90%)

---

system: Plutella xylostella; assay: Insecticidal activity, artificial feed surface coating method; type: in vivo; conditions: 500 mg/L test solution
For each entry below, report its Insecticidal activity (mortality rate grade) Plutella xylostella value.

Field: example entries. Status: answers known.
CCC(=O)N1N=C(C)CN(N=Cc2ccc[n+](CCCS(=O)(=O)[O-])c2)C1=O [IV-5] :: 3 (30˜50%)
CCC(=O)N1N=C(C)CN(N=Cc2ccc[n+](CC=CS(=O)(=O)[O-])c2)C1=O [IV-7] :: 3 (30˜50%)
CCC(=O)N1N=C(C)CN(N=Cc2ccc[n+](CCCCS(=O)(=O)[O-])c2)C1=O [IV-9] :: 3 (30˜50%)
CC1=NNC(=O)N(N=Cc2ccc[n+](CC=CS(=O)(=O)[O-])c2)C1 [IV-2] :: 5 (50-70%)

Task: Dear colleague, I am looking for the recorded Insecticidal activity (mortality rate grade) Plutella xylostella of the following molecule: CC1=NNC(=O)N(N=Cc2ccc[n+](CCCS(=O)(=O)[O-])c2)C1 [IV-1]
Result: 5 (50-70%)

---

Would you kindly list Insecticidal activity (mortality rate grade) Plutella xylostella for each of these compounds?
test system: Plutella xylostella; assay: Insecticidal activity, artificial feed surface coating method; assay type: in vivo; details: 125 mg/L test solution

Field: example entries. Status: answers known.
CC1=NNC(=O)N(N=Cc2ccc[n+](CCCCS(=O)(=O)[O-])c2)C1 [IV-3] :: 0 (mortality rate of 0˜30%)
CC1=NNC(=O)N(N=Cc2ccc[n+](CC=CS(=O)(=O)[O-])c2)C1 [IV-2] :: 0 (mortality rate of 0˜30%)
CC(=O)N1N=C(C)CN(N=Cc2ccc[n+](CC=CS(=O)(=O)[O-])c2)C1=O [IV-6] :: 0 (mortality rate of 0˜30%)
CC1=NNC(=O)N(N=Cc2ccc[n+](CCCS(=O)(=O)[O-])c2)C1 [IV-1] :: 3 (30˜50%)
CC(=O)N1N=C(C)CN(N=Cc2ccc[n+](CCCCS(=O)(=O)[O-])c2)C1=O [IV-8] :: 0 (mortality rate of 0˜30%)
CCC(=O)N1N=C(C)CN(N=Cc2ccc[n+](CCCCS(=O)(=O)[O-])c2)C1=O [IV-9] :: 0 (mortality rate of 0˜30%)

Go through the list and state Insecticidal activity (mortality rate grade) Plutella xylostella for each entry.
1. CCC(=O)N1N=C(C)CN(N=Cc2ccc[n+](CCCS(=O)(=O)[O-])c2)C1=O [IV-5]
2. CC(=O)N1N=C(C)CN(N=Cc2ccc[n+](CCCS(=O)(=O)[O-])c2)C1=O [IV-4]
3. CCC(=O)N1N=C(C)CN(N=Cc2ccc[n+](CC=CS(=O)(=O)[O-])c2)C1=O [IV-7]

Result:
1. 0 (mortality rate of 0˜30%)
2. 3 (30˜50%)
3. 0 (mortality rate of 0˜30%)
